target: phosphodiesterase 3a (Homo sapiens, UniProt Q14432)
Sequence (Q14432 whole entry): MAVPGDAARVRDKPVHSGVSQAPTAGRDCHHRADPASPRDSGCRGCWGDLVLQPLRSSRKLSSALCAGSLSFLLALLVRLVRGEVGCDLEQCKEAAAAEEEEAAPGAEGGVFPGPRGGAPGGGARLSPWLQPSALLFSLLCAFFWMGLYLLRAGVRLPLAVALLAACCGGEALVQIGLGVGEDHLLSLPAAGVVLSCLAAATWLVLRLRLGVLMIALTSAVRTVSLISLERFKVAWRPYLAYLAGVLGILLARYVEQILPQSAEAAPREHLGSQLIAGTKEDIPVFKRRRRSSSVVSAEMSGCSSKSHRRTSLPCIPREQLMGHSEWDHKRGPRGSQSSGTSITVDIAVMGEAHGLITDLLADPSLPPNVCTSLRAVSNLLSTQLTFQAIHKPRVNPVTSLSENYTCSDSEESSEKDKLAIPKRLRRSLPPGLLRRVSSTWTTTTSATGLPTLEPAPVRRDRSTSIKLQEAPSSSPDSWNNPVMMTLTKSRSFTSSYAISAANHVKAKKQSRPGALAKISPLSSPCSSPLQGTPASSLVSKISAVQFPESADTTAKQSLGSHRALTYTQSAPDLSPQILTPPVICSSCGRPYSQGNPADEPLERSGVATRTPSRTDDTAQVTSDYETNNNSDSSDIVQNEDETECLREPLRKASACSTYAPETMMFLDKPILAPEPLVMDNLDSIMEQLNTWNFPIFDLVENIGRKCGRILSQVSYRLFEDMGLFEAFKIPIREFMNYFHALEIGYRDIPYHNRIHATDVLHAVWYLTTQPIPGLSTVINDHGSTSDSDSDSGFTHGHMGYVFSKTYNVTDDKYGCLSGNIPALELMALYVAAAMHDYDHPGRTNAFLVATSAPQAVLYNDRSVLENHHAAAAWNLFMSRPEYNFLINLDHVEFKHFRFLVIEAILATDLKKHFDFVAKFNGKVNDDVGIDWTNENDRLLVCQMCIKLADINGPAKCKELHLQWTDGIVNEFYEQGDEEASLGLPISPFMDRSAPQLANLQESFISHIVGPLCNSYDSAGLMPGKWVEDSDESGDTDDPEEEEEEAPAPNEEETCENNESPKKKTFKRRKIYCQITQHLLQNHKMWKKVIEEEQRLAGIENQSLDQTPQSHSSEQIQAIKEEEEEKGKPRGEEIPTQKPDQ
pIC50: −log10 of the molar value.

Compound	pIC50
C[C@@H]1C[C@@H](C)CN(c2ccc(NS(=O)(=O)c3ccc4c(c3)c(=O)[nH]c(=O)n4C)cn2)C1 [compound 13]	5.15

* * *

assay: solubility assessment; format: physicochemical; conditions: monopotassium phosphate JP2 buffer, pH 6.8

Smi	Unit of measure	solubility at 12 h
CNc1cc2nc(C)[nH]c(=O)c2cc1S(=O)(=O)Nc1ccc(N2C[C@H](C)C[C@@H](C)C2)nc1	µM	6.7

* * *

test: solubility in the PDE-3 buffer solution; type: physicochemical

Smi	solubility (µM)
Cn1c(=O)[nH]c(=O)c2cc(S(=O)(=O)Nc3ccc(-c4ccccc4)cc3)ccc21	1.2
